experiment: Cytotoxicity against HUVEC cells assessed as cell growth inhibition incubated for 48 hrs by MTT assay; type: toxicity, cell-based; conditions: human
Reported endpoint: IC50 at 48 h
Please report the result as a number followed by the unit.

Record O=C(NO)c1nc(-c2ccc(COc3ccc(C(F)(F)F)cc3)cc2)no1 , field IC50 at 48 h: 84.3 µM

====

test: AUC (0 to t) in ICR mouse at 10 mg/kg, po measured for 0.083 to 24 hrs by LC-MS/MS analysis; format: ADME, organism-based; parameters: time upper 24 hrs, time lower 0.083 hrs, dose 10 mg/kg, route po; settings: in vivo
Reported endpoint: AUC(0-t) (ng·h/mL)
Express the result in ng·h/mL but write the number alone.

According to the records, this compound O=C(NO)c1nc(-c2ccc(COc3ccc(Br)cc3)cc2)no1 displays AUC(0-t) of 805

====

assay: Clearance in ICR mouse at 1 mg/kg, iv measured for 0.083 to 24 hrs by LC-MS/MS analysis; format: ADME, organism-based; conditions: in vivo, time 0.083-24 hrs
Reported endpoint: clearance (mL/min/kg)
Numeric answer only, unit mL/min/kg assumed.

The reported clearance of the compound O=C(NO)c1nc(-c2ccc(COc3ccc(Br)cc3)cc2)no1 was 73.2

====

experiment: Tmax in ICR mouse at 1 mg/kg, iv measured for 0.083 to 24 hrs by LC-MS/MS analysis; type: ADME, organism-based; settings: in vivo, time 0.083-24 hrs
Reported endpoint: Tmax

Input O=C(NO)c1nc(-c2ccc(COc3ccc(Br)cc3)cc2)no1 . Output Tmax: 4.98 min

====

assay: Cmax in ICR mouse at 10 mg/kg, po measured for 0.083 to 24 hrs by LC-MS/MS analysis; assay type: ADME, organism-based; parameters: time upper 24 hrs, time lower 0.083 hrs, dose 10 mg/kg, route po; details: in vivo
Reported endpoint: Cmax (ng/mL)
Please give a number only; it is taken to be in ng/mL.

Query O=C(NO)c1nc(-c2ccc(COc3ccc(Br)cc3)cc2)no1 yields Cmax of 2760

====

assay: MRT (0 to t) in ICR mouse at 1 mg/kg, iv measured for 0.083 to 24 hrs by LC-MS/MS analysis; type: ADME, organism-based; conditions: in vivo, time 0.083-24 hrs
Reported endpoint: MRT last (min)
Expressed in min, but write only the number.

MRT last in this record for O=C(NO)c1nc(-c2ccc(COc3ccc(Br)cc3)cc2)no1 : 4.62

====

Biological target: Sphingomyelin phosphodiesterase (Homo sapiens, UniProt P17405)
Sequence (P17405 whole entry): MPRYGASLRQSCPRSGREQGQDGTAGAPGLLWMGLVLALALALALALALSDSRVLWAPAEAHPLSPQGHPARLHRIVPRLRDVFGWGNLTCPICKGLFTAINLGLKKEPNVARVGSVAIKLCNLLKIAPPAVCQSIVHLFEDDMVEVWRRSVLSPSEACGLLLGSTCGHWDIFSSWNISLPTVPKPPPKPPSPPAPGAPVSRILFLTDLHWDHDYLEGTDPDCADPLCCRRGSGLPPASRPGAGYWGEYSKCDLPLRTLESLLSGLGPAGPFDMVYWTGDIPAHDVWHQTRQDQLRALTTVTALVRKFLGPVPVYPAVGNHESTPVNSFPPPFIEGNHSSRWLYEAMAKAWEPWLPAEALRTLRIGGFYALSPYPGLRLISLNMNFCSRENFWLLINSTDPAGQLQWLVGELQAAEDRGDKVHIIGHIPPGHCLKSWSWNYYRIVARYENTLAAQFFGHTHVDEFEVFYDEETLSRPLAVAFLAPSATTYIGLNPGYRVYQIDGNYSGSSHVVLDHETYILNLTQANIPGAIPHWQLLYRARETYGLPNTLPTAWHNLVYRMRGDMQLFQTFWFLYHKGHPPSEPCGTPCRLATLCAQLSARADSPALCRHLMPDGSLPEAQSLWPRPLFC
Experiment: Inhibition of recombinant human aSMase (62 to 628 residues) using HMU-PC as substrate incubated for 2 hrs by fluorescence based assay
The entries below are paired with their reported log10 of IC50.
Please note: log10 values; quantity IC50; unit µM.

The cases that follow already have their log10 of IC50 on record.
{"Smiles data": "CCCCOc1ccc(-c2cc(C(=O)NO)no2)cc1", "Study system": "Sphingomyelin phosphodiesterase (Homo sapiens, UniProt P17405)", "log10 of IC50": 0.00}
{"Smiles data": "O=C(NO)c1nc(-c2ccc(COc3ccc(C(F)(F)F)cc3)cc2)no1", "Study system": "Sphingomyelin phosphodiesterase (Homo sapiens, UniProt P17405)", "log10 of IC50": 0.91}
{"Smiles data": "O=C(NO)c1nc(COc2ccc(-c3ccccc3)cc2)no1", "Study system": "Sphingomyelin phosphodiesterase (Homo sapiens, UniProt P17405)", "log10 of IC50": -0.08}
{"Smiles data": "O=C(NO)c1nc(-c2ccc(COc3ccc(Br)cc3)cc2)no1", "Study system": "Sphingomyelin phosphodiesterase (Homo sapiens, UniProt P17405)", "log10 of IC50": 0.18}
{"Smiles data": "O=C(NO)c1nnc(-c2ccc(-c3ccc(Cl)cc3)cc2)o1", "Study system": "Sphingomyelin phosphodiesterase (Homo sapiens, UniProt P17405)", "log10 of IC50": -0.29}

Memo: O=C(Cc1noc(COc2ccc(-c3ccc(Cl)cc3)cc2)n1)NO , reported log10 of IC50: 1.27
